- details: in tert-butanol, 298.15 K
property: solubility (mole fraction)

Could you share which solubility (mole fraction) value was measured for "CC(=O)Oc1ccccc1C(=O)O" ?
0.0684

====

- details: in isopentanol, 298.15 K
property: solubility (mole fraction)
Answer as a number with no unit attached.

Could you share which solubility (mole fraction) value was measured for "CC(=O)Oc1ccccc1C(=O)O" ?
0.0381

====

- details: in n-heptanol, 298.15 K
property: solubility (mole fraction)
Answer as a number with no unit attached.

Could you share which solubility (mole fraction) value was measured for "CC(=O)Oc1ccccc1C(=O)O" ?
0.0389

====

- details: in 2-ethylhexanol, 298.15 K
property: solubility (mole fraction)
Answer as a number with no unit attached.

Could you share which solubility (mole fraction) value was measured for "CC(=O)Oc1ccccc1C(=O)O" ?
0.0303
